Source listed as the MegaScale stability set (Tsuboyama et al. 2023).

B1: 2M8U (parent)
chain: TKAQVIEAFKVFDRDGNGYVTVDYLRKVLNELGDMMPADEIEEMIYEADPQNSGYVQYETFVGMLFL

Variants of: B1
protocol_summary: folding stability dG (cDNA display proteolysis); higher = more stable
condition_summary: PBS, room temperature
Would you kindly list folding stability dG for each of these variants?
Give the value, in units of kcal/mol, as a plain number.

Problem: Record request: folding stability dG value, item `E59D`
Result: 2.99

Problem: Consider the variant shown here: `K2T` What is its recorded folding stability dG?
Result: 2.79

Problem: Bench note: what folding stability dG did `V11I` show?
Result: 3.38

Problem: What does the data say about its folding stability dG? Entry: `Y19P`
Result: 1.9

Problem: Entry under review: `F66R` . Reported folding stability dG?
Result: 2.78

Problem: Bench note: what folding stability dG did `E31N` show?
Result: 3.36

Problem: Recorded folding stability dG of `I45M` , please.
Result: 2.88

Problem: Tell me the measured folding stability dG of `N30T` , please.
Result: 3.44

Problem: What does the data say about its folding stability dG? Entry: `M35T`
Result: 3.14

Problem: What value of folding stability dG has been recorded for this entry: `L67G`
Result: 3.49

Problem: What folding stability dG value was documented for this variant, `D39P` ?
Result: 3.68

Problem: # folding stability dG lookup, item `G63E`
Result: 4.11

Problem: Give its folding stability dG value. Item: `A8D`
Result: 2.49

Problem: Please look up its folding stability dG: `D13T`
Result: 2.06
